Provenance of the data: paper PMC10397247

# TARGET_OR_TEST_SYSTEM: T1, zCON9_B
# T1 chain: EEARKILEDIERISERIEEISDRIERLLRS
# PROCEDURE_DETAILS: two-hybrid library CCmax;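 further: natural log of median RNA to DNA barcode read ratio; higher means stronger binding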
# CONDITION_SUMMARY: mean of both orientations
ENDPOINT: interaction score

DEIAALEAKNAALKAEIAALEAKNAALKG [P7-AA]; -1.46
DENAALEAKIAALKAKNAALKAEIAALEG [4H1401-AA]; -0.316
DEIAALEAENAALEAENAALEAEIAALEG [P1-AA]; -1.67
DKIAALKAKNAALKAKNAALKAKIAALKG [P2-AA]; 1.28
DKIAALKAKIAALKAENAALEAENAALEG [P4-AA]; -1.1
DEIAALEAEIAALEAKNAALKAKNAALKG [P3-AA]; -1.33
DKIAALKAENAALEAKIAALKAENAALEG [P8-AA]; -1.66
KELQAIEKQLAQLQWKAQARKKKLAQLKK [4H_APH]; -2.09
DKNAALKAKIAALKAKIAALKAENAALEG [P12-AA]; 0.333
DENAALEAEIAALEAEIAALEAKNAALKG [P11-AA]; -0.891
ASIRRLEQEVNQERSRMAYLQTLLAKIEQ [4H_BCR]; -0.916
DKNAALKAEIAALEAENAALEAKIAALKG [4H3606-AA]; -0.854
DKNAALKAENAALEAKIAALKAKIAALKG [P10-AA]; -0.0248
